# Assayed System: FAAH2 (Homo sapiens, UniProt Q6GMR7)
# Sequence (Q6GMR7 whole entry): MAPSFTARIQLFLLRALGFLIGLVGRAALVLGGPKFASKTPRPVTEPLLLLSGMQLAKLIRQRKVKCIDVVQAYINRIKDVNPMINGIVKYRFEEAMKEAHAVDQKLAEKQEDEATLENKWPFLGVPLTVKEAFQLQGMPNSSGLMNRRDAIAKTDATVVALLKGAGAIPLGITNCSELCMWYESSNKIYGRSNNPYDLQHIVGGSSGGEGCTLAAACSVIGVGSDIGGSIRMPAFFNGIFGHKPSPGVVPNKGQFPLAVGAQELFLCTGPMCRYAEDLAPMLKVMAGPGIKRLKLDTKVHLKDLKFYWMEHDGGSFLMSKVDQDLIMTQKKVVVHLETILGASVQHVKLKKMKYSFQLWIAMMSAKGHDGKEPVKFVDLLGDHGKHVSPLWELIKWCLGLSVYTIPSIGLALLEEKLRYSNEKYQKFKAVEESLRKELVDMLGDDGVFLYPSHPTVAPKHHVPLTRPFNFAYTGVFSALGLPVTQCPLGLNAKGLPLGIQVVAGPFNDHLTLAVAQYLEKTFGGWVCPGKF
# Assay Protocol: competitive gel-based ABPP, intact HEK293T cells
# Assay Conditions: FAAH2, in situ (4 h)
Measurement Label: pIC50
# reply with the number alone; pIC50 is -log10 of concentration in mol/L

Compound Smiles	Assayed System	Observed Result
CN(C(=O)n1cnc(-c2ccc[n+]([O-])c2)c1)C1CCCCC1	FAAH2 (Homo sapiens, UniProt Q6GMR7)	6.40
O=C(Nc1cccnn1)N1CCC(=Cc2cccc(Oc3ccc(C(F)(F)F)cn3)c2)CC1	FAAH2 (Homo sapiens, UniProt Q6GMR7)	6.23

In: Please indicate pIC50 recorded for "CN(C(=O)n1cnc(-c2cccnc2)c1)C1CCCCC1"
Out: 7.00
